target: Human recombinant PDE3A (hPDE3A) (Homo sapiens); construct: purchased Scottish Biomedical; host or cells: Sf9 insect cells; test: In vitro assay PDE3A (SPA, 3H-cAMP hydrolysis); format: biochemical; settings: hPDE3B pIC50; read-out: pIC50 (converted);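 note: the method names PDE3A and the table heading PDE3B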
Sequence (Q14432 whole entry): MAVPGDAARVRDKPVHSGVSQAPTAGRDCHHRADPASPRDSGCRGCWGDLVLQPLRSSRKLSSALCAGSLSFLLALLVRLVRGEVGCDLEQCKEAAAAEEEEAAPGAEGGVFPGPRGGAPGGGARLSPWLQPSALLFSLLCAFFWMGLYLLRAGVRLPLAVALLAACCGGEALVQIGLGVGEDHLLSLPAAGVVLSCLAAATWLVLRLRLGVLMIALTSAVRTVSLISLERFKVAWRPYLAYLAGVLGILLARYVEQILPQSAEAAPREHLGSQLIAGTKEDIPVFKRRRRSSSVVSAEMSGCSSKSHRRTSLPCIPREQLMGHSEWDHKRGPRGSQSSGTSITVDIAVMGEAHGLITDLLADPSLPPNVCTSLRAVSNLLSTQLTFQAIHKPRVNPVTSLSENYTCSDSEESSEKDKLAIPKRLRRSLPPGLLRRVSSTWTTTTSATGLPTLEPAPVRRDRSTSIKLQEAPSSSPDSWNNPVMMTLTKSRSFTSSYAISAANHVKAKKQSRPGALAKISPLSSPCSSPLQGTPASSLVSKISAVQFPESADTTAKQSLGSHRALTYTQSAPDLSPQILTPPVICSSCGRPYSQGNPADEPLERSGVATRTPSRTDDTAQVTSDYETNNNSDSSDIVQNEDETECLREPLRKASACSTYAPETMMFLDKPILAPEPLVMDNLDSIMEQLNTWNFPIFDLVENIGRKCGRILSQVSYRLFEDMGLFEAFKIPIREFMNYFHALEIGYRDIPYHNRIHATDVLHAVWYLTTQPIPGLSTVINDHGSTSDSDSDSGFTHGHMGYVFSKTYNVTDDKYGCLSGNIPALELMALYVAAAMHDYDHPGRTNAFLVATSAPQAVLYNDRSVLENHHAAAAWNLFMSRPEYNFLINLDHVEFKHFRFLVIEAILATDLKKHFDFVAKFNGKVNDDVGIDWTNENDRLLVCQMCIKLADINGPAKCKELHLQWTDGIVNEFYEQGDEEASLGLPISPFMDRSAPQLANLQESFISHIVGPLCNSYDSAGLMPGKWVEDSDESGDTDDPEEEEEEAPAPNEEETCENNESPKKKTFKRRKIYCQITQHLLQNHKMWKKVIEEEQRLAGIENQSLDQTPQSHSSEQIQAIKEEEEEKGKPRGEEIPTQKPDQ
Readings of IC50 for the listed molecules
Write down the numeric answer in µM and omit the unit.

Here is how some molecules turned out for IC50.
# Item smiles, IC50 / µM
rows = [
    ("C[C@@H]1CCN(C(=O)c2cc3ccc(C(F)(F)F)cc3[nH]2)C[C@H]1c1cc(C(F)F)nc2ncnn12", 0.105),
    ("O=C(c1ccc2ncccc2c1)N1[C@H]2CC[C@H](c3cc(C(F)F)nc4ncnn34)[C@@H]1CC2", 7.41),
    ("C[C@@H]1CCN(C(=O)c2ccc3ccccc3c2)C[C@H]1c1cc(C(F)F)nc2ncnn12", 0.0501),
    ("Cn1cc(C(=O)N2[C@H]3CC[C@H](c4cc(C(F)F)nc5ncnn45)[C@@H]2CC3)c2ccccc21", 5.89),
    ("C[C@@H]1CCN(C(=O)c2cc(OC(F)F)cc(C3CC3)c2)C[C@H]1c1cc(C(F)F)nc2ncnn12", 0.708),
]

QUERY: Value lookup for IC50; key = Cc1cc(C(=O)N2CC[C@@H](C)[C@H](c3cc(C)nc4ncnn34)C2)cc(C(F)(F)F)n1
RESULT: 5.75

QUERY: Value lookup for IC50; key = C/C(=C\c1ccc(F)cc1)C(=O)N1[C@H]2CC[C@H](c3cc(C(F)F)nc4ncnn34)[C@@H]1CC2
RESULT: 1.45

QUERY: Value lookup for IC50; key = O=C(c1ccc(C(F)(F)F)cc1)N1[C@H]2CC[C@H](c3cc(C(F)F)nc4ncnn34)[C@@H]1CC2
RESULT: 4.27

QUERY: Value lookup for IC50; key = Cc1cc([C@@H]2CN(C(=O)c3cc(C4CC4)ncc3C3CC3)CC[C@H]2C)n2ncnc2n1
RESULT: 2.57

QUERY: Value lookup for IC50; key = Cc1cc(C(=O)N2CC[C@@H](C)[C@H](c3cc(C(F)F)nc4ncnn34)C2)c(F)cn1
RESULT: 7.41

###

Readings of receptor occupancy at 10 mg/kg for the listed compounds
molecular target: PDE2A (Rattus norvegicus, UniProt Q01062); construct: Twenty μm-thick striatal sections were cut; from tissue; host or cells: rat brain, striatal sections; test: PDE2 occupancy by test compounds, ex-vivo autoradiography with [3H]B-17a; assay type: in vivo, Male Wistar rats; conditions: 10 mg/kg, route PO (oral), percentage receptor occupancy, ex-vivo autoradiography, striatum
Sequence (Q01062 whole entry): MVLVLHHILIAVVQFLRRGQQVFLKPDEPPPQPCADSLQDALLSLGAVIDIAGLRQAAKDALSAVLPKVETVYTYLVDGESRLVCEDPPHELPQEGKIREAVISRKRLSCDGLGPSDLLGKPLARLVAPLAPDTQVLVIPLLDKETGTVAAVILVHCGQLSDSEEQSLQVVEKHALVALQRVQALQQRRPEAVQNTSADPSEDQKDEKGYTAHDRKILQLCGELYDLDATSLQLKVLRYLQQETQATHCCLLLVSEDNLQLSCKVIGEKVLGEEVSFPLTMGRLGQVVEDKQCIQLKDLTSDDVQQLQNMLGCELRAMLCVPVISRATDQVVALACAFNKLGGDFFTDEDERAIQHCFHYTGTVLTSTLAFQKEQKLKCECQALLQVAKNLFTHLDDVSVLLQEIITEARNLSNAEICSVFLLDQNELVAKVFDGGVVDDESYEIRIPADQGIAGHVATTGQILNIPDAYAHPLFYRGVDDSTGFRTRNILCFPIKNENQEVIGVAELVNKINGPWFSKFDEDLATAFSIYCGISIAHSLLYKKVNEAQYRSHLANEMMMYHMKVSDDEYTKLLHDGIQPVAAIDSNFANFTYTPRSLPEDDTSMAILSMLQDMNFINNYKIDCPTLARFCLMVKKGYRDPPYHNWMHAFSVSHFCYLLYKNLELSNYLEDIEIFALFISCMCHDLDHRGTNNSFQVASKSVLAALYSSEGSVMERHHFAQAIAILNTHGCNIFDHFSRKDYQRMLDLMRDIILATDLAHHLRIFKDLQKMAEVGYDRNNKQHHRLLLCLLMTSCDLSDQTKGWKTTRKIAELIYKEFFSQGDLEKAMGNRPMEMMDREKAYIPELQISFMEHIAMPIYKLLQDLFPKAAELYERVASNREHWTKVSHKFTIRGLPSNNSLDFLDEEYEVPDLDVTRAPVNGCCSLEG
Write down the numeric answer in % and omit the unit.

# Item smiles, Value type, Meas value
data = [
    ("Cc1cc(C(=O)N2[C@H]3CC[C@H](c4cc(C(F)F)nc5ncnn45)[C@@H]2CC3)cc(C(F)F)n1", "receptor occupancy at 10 mg/kg", 17),
    ("Cc1nc2ccc(C(=O)N3[C@H]4CC[C@H](c5cc(C(F)F)nc6ncnn56)[C@@H]3CC4)cc2o1", "receptor occupancy at 10 mg/kg", 17),
    ("O=C(c1ccc2occc2c1)N1[C@H]2CC[C@H](c3cc(C(F)F)nc4ncnn34)[C@@H]1CC2", "receptor occupancy at 10 mg/kg", 15),
    ("COc1c(C)cc(C(=O)N2[C@H]3CC[C@H](c4cc(C(F)F)nc5ncnn45)[C@@H]2CC3)cc1C", "receptor occupancy at 10 mg/kg", 23),
    ("Cc1nn(C)c2sc(C(=O)N3[C@H]4CC[C@H](c5cc(C(F)F)nc6ncnn56)[C@@H]3CC4)cc12", "receptor occupancy at 10 mg/kg", 88),
    ("O=C(c1ccc2ncccc2c1)N1[C@H]2CC[C@H](c3cc(C(F)F)nc4ncnn34)[C@@H]1CC2", "receptor occupancy at 10 mg/kg", -1),
]

QUERY: Value lookup for receptor occupancy at 10 mg/kg; key = O=C(c1ccc2cnccc2c1)N1[C@H]2CC[C@H](c3cc(C(F)F)nc4ncnn34)[C@@H]1CC2
RESULT: 5

QUERY: Value lookup for receptor occupancy at 10 mg/kg; key = Cc1cc(C(=O)N2[C@H]3CC[C@H](c4cc(C(F)F)nc5ncnn45)[C@@H]2CC3)cc(C)c1F
RESULT: 19
